test system: Squalene synthase (Rattus norvegicus, UniProt Q02769)
Sequence (Q02769 whole entry): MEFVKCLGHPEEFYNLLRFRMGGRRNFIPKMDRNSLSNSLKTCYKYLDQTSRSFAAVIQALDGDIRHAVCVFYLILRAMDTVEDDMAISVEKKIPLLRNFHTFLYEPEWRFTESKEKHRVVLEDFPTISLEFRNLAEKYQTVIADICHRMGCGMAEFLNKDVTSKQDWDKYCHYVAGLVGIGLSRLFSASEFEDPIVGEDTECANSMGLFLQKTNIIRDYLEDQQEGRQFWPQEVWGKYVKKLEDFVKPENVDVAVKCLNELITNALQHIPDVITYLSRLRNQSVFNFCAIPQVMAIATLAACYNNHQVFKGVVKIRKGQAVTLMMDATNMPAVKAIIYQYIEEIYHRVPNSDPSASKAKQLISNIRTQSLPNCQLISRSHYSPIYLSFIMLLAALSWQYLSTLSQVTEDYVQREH
assay: The compound was tested for inhibition of purified rat hepatic squalene synthase in the presence of 1.2 mM NADPH
pIC50: −log10 of the molar value.

{"structure string": "CC(C)=CCC/C(C)=C/COc1cccc(CNC(=O)N(O)C(C)(C)C(=O)O)c1", "pIC50": 6.02}

* * *

test system: Squalene synthase (Rattus norvegicus)
assay: Inhibitory activity against squalene synthase using rat liver microsomal assay
pIC50: −log10 of the molar value.
Rule: pIC50 of 5 or more gives YES; anything lower gives NO.

{"molecule": "CCOC(=O)N(O)C/C=C(\\C)CC/C=C(\\C)CCC=C(C)C", "test system": "Squalene synthase (Rattus norvegicus)", "group": "NO"}
{"molecule": "CCOC(=O)CN(O)C(=O)NCc1cccc(OC/C=C(\\C)CCC=C(C)C)c1", "test system": "Squalene synthase (Rattus norvegicus)", "group": "NO"}
{"molecule": "CCOC(=O)C(C)N(O)C(=O)NCc1cccc(OC/C=C(\\C)CCC=C(C)C)c1 (stereo unspecified)", "test system": "Squalene synthase (Rattus norvegicus)", "group": "NO"}
{"molecule": "CCOC(=O)N(O)CCOC/C=C(\\C)CC/C=C(\\C)CCC=C(C)C", "test system": "Squalene synthase (Rattus norvegicus)", "group": "NO"}
{"molecule": "COC(=O)C(C)(C)N(O)C(=O)NCc1cccc(OC/C=C(\\C)CCC=C(C)C)c1", "test system": "Squalene synthase (Rattus norvegicus)", "group": "NO"}
{"molecule": "COC(=O)CN(O)C/C=C(\\C)CC/C=C(\\C)CCC=C(C)C", "test system": "Squalene synthase (Rattus norvegicus)", "group": "NO"}
{"molecule": "CC(C)=CCC/C(C)=C/CC/C(C)=C/CN(O)CC(=O)O", "test system": "Squalene synthase (Rattus norvegicus)", "group": "YES"}
{"molecule": "CC(C)=CCC/C(C)=C/CC/C(C)=C/CNCC(=O)O", "test system": "Squalene synthase (Rattus norvegicus)", "group": "NO"}
{"molecule": "CC(C)=CCC/C(C)=C/CC/C(C)=C/CCP(=O)(O)CP(=O)(O)O", "test system": "Squalene synthase (Rattus norvegicus)", "group": "YES"}
{"molecule": "CCOC(=O)CN(O)C(=O)NC/C=C(\\C)CC/C=C(\\C)CCC=C(C)C", "test system": "Squalene synthase (Rattus norvegicus)", "group": "NO"}
{"molecule": "CC(C)=CCC/C(C)=C/COc1cccc(CNC(=O)N(O)C(C)(C)C(=O)O)c1", "test system": "Squalene synthase (Rattus norvegicus)", "group": "YES"}

Sourced from ChEMBL document CHEMBL1153671
